target: Acetylcholinesterase (Electrophorus electricus) (UniProt O42275); settings: at 2 mg/mL
Sequence (O42275 24-633 limits assumed): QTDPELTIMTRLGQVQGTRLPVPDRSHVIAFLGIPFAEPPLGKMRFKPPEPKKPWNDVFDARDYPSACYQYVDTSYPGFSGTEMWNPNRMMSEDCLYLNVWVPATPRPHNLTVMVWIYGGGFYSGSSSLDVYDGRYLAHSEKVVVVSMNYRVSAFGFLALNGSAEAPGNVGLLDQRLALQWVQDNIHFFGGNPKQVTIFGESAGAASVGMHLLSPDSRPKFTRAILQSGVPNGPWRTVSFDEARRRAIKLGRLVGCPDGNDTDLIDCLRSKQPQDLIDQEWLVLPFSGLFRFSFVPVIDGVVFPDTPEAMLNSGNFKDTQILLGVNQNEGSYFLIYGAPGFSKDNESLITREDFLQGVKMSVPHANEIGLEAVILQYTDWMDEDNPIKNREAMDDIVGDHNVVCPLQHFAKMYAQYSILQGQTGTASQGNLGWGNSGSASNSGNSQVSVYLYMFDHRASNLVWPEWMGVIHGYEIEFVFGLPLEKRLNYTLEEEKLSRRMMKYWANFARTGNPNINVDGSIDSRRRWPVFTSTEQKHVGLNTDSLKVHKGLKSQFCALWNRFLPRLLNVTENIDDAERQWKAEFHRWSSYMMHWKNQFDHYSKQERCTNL
Description: Inhibition of electric eel AChE at 2 mg/ml by Ellman's method
Let's look at some compounds and their measured inhibition.
API: value field is a number in %; no unit string.

CN(C)CCc1ccc(O)cc1
-4.35

Next, consider the following compound.
Query block: Entry under review: COc1cc2c(cc1OC)[C@H](C)NCC2 . Reported inhibition?
Result block: -3.39

====

target: Acetylcholinesterase (Electrophorus electricus); conditions: at 2 mg/mL
Record MET whenever inhibition is at 10% or higher; record NOT MET when lower.

Query block: Test whether the compound CCCCCCCCCCC[C@@H](C[C@@H]1OC(=O)[C@H]1CCCCCC)OC(=O)[C@H](CC(C)C)NC=O records inhibition of 10% or higher.
Result block: NOT MET

Query block: Another compound to check: C=C(C)[C@@H]1[C@H]2OC(=O)[C@@H]1[C@]1(O)C[C@H]3O[C@]34C(=O)O[C@H]2[C@]14C
Result block: MET

Query block: Another compound to check: C[C@@]12CCc3occc3[C@H]1CC[C@]13CC(=O)[C@H](CC[C@H]12)C3
Result block: NOT MET

Query block: Another compound to check: CN(C)Cc1c[nH]c2ccccc12
Result block: MET

Query block: Another compound to check: Cc1c(C(=O)O)c(O)cc2c1C(=O)c1c(O)c([C@@H]3O[C@H](CO)[C@@H](O)[C@H](O)[C@H]3O)c(O)c(O)c1C2=O
Result block: MET

Query block: Another compound to check: COC(=O)[C@@H]1[C@H]2C[C@H]3c4[nH]c5ccccc5c4CCN3C[C@@H]2CC[C@@H]1O
Result block: MET

Query block: Another compound to check: CC1(C)[C@@H](O)C[C@H]2[C@](C)(O)[C@@H]3CC[C@@H]4[C@@H](O)[C@@]3(C[C@@H](O)[C@@]21O)C[C@@]4(C)O
Result block: NOT MET

Query block: Another compound to check: CCCCCCC(=O)CCCCCC/C=C/C[C@@H](O)[C@H](O)[C@@](N)(CO)C(=O)O
Result block: NOT MET

Query block: Another compound to check: CC(C)=CC[C@@H](OC(=O)C=C(C)C)C1=CC(=O)c2c(O)ccc(O)c2C1=O
Result block: MET

Query block: Another compound to check: CC(=O)OC[C@]12CCC(C)=C[C@H]1O[C@@H]1[C@H](O)[C@@H](OC(C)=O)[C@@]2(C)[C@]12CO2
Result block: MET

====

target: Cholinesterase (Equus caballus); details: at 2 mg/mL
Description: Inhibition of horse BChE at 2 mg/ml by Ellman's method
Let's look at some compounds and their measured inhibition.
API: value field is a number in %; no unit string.

Query block: Entry under review: CC[C@@H](C)[C@@H](O)[C@H](C)C(=O)[C@H](C)/C=C(\C)C[C@H](C)[C@@H]1OC(=O)[C@H]1CC . Reported inhibition?
Result block: 99.8

====

Let's look at some molecules and their measured inhibition.
molecular target: Cholinesterase (Equus caballus); conditions: at 2 mg/mL
API: value field is a number in %; no unit string.

C[C@H]1CC[C@]2(NC1)O[C@H]1C[C@H]3[C@@H]4CC[C@H]5C[C@@H](O)CC[C@]5(C)[C@H]4CC[C@]3(C)[C@H]1[C@@H]2C
6.89

Query block: Entry under review: CO[C@@]12[C@H](COC(N)=O)C3=C(C(=O)C(C)=C(N)C3=O)N1C[C@@H]1N[C@@H]12 . Reported inhibition?
Result block: 3.34

Query block: Another molecule to check: COC(=O)[C@@H]1[C@H]2C[C@H]3c4[nH]c5ccccc5c4CCN3C[C@@H]2CC[C@@H]1O
Result block: -2.5

Query block: Another molecule to check: CCCCC[C@H](O)/C=C/[C@H]1[C@H](O)CC(=O)[C@@H]1CCCCCCC(=O)O
Result block: -1.69

Query block: Another molecule to check: O=C1C[C@@H]2OCC=C3CN4CC[C@]56c7ccccc7N1[C@H]5[C@H]2[C@H]3C[C@H]46
Result block: 32.4

====

molecular target: Cholinesterase (Equus caballus); settings: at 2 mg/mL
recorded endpoint: inhibition (%)
API: value field is a number in %; no unit string.

# example entries with known answers
CCN1C[C@]2(C)CC[C@H](OC)[C@@]34C1[C@]1(OCO[C@@]15C[C@H](OC)[C@H]1C[C@]3(O)[C@@H]5[C@H]1OC)[C@@H](OC(C)=O)[C@H]24
0.02
C[n+]1cccc(C(=O)[O-])c1
-5.02
Clc1ccc(C2CC3CCC2N3)cn1 (racemic)
5.32
CC(=O)c1c(O)c(C)c(O)c(Cc2c(O)c3c(c(C(=O)/C=C/c4ccccc4)c2O)OC(C)(C)C=C3)c1O
4.24
COc1ccc2[nH]cc(CCNC(C)=O)c2c1
1.01
CO[C@@H]1C[C@@H](C[C@H]2CC[C@H](C)[C@H]([C@@H](C)C(=O)O)O2)O[C@]2(O[C@](C)([C@H]3CC[C@@](C)([C@@H]4O[C@@H]([C@H]5O[C@@](O)(CO)[C@H](C)C[C@@H]5C)C[C@@H]4C)O3)C[C@H]2C)[C@@H]1C
4.98
COc1ccc(/C=C/c2cc(OC)cc(=O)o2)cc1
-1.55
O=c1c(O)c(-c2ccc(O)cc2)oc2cc(O)cc(O)c12
5.23

Query block: Entry under review: CC[C@@H](C)C(=O)O[C@H]1[C@H](O)[C@H]2[C@@H](CN3C[C@@H](C)CC[C@H]3[C@@]2(C)O)[C@@H]2C[C@]34O[C@]5(O)[C@@H](OC(=O)[C@](C)(O)[C@@H](C)O)CC[C@@]3(C)[C@@H]5[C@@H](OC(C)=O)[C@@H](OC(C)=O)[C@H]4[C@@]21O . Reported inhibition?
Result block: -0.35

Query block: Another compound to check: CC1=CC(=O)C(C(C)C)=CC1=O
Result block: -0.33

Query block: Another compound to check: COc1cc(/C=C/C(=O)CC(=O)/C=C/c2ccc(O)c(OC)c2)ccc1O
Result block: 2.41

Query block: Another compound to check: C[C@@H]1O[C@@H](OC[C@H]2O[C@@H](Oc3cc(O)c4c(c3)O[C@H](c3ccc(O)c(O)c3)CC4=O)[C@H](O)[C@@H](O)[C@@H]2O)[C@H](O)[C@H](O)[C@H]1O
Result block: 1.98

Query block: Another compound to check: C[C@H]1C(=O)O[C@@H]2CCN3CC=C(COC(=O)[C@](C)(O)[C@]1(C)O)[C@H]23
Result block: 4.32

Query block: Another compound to check: C[C@@H]1C/C=C/C=C/C=C/C=C/[C@H](O[C@@H]2O[C@H](C)[C@@H](O)[C@H](N)[C@@H]2O)C[C@@H]2O[C@](O)(C[C@@H](O)C[C@H]3O[C@@H]3/C=C/C(=O)O1)C[C@H](O)[C@H]2C(=O)O
Result block: -8.59

====

biological target: Cholinesterase (Equus caballus) (UniProt P81908); details: at 2 mg/mL
Sequence (P81908 whole entry): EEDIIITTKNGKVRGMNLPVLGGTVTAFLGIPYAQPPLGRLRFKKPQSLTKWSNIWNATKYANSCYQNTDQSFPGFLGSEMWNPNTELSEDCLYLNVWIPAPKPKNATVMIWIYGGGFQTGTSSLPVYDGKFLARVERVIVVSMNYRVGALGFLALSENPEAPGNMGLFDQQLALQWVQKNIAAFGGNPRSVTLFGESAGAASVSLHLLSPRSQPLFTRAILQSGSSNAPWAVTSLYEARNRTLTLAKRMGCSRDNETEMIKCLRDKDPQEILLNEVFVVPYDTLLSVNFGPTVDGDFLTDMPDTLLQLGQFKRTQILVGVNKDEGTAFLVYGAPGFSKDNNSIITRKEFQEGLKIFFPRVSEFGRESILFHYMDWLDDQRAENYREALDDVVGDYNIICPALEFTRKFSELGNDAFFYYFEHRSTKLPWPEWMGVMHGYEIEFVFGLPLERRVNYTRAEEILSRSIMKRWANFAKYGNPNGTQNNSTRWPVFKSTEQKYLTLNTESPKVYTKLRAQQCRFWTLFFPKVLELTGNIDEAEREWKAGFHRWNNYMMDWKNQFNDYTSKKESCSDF
recorded endpoint: inhibition
Units required after the number.

C[C@H]1CC[C@@H]2[C@@H](C)[C@H]3[C@H](C[C@H]4[C@@H]5CC=C6C[C@@H](O[C@@H]7O[C@H](CO)[C@H](O)[C@H](O[C@@H]8O[C@H](CO)[C@@H](O)[C@H](O)[C@H]8O)[C@H]7O[C@@H]7O[C@@H](C)[C@H](O)[C@@H](O)[C@H]7O)CC[C@]6(C)[C@H]5CC[C@]34C)N2C1
12.2%

Next, consider the following compound.
Query block: Entry under review: COc1ccc(-c2cc(=O)c3c(O)cc(O[C@@H]4O[C@H](CO[C@@H]5O[C@@H](C)[C@H](O)[C@@H](O)[C@H]5O)[C@@H](O)[C@H](O)[C@H]4O)cc3o2)cc1O . Reported inhibition?
Result block: 7.92%

====

Let's look at some compounds and their measured inhibition.
target: Acetylcholinesterase (Electrophorus electricus) (UniProt O42275); details: at 2 mg/mL
API: value field is a number in %; no unit string.

COc1ccc(/C=C/c2cc(O)cc(O[C@@H]3O[C@H](CO)[C@@H](O)[C@H](O)[C@H]3O)c2)cc1O
-3.62
CC(=O)O[C@H]1C(=O)[C@@]2(C)[C@H]([C@H](OC(=O)c3ccccc3)[C@]3(O)C[C@H](O)C(C)=C1C3(C)C)[C@]1(OC(C)=O)CO[C@@H]1C[C@@H]2O
27.8
CCC1=C[C@@H]2CN(C1)Cc1c([nH]c3ccccc13)[C@@](C(=O)OC)(c1cc3c(cc1OC)N(C)[C@H]1[C@@](O)(C(=O)OC)[C@H](OC(C)=O)[C@]4(CC)C=CCN5CC[C@]31[C@@H]54)C2
-0.32
CN1[C@@H]2CC[C@H]1C[C@H](O)C2
1.27
CC1=C(/C=C/C(C)=C/C=C/C(C)=C/C(=O)O)C(C)(C)CCC1
9.3
COc1ccc2cc1Oc1ccc(cc1)C[C@@H]1c3cc(c(OC)cc3CCN1C)Oc1c(OC)c(OC)cc3c1[C@H](C2)N(C)CC3
-1.02

Next, consider the following compound.
Query block: Entry under review: C/C=C(/C)C(=O)O[C@H]1C[C@@]2(C)O[C@H]2[C@@H](O)[C@@]2(C)CC[C@@](O)(C(C)C)[C@H]12 . Reported inhibition?
Result block: 17.2
